Let's look at some Ki data for D(3) dopamine receptor (Homo sapiens) that I collected from the literature.
endpoint.label: Ki (nM)

compound | unit.name | value.prefix | data.value
C=CCN1CC[C@H](c2ccc(NS(=O)(=O)c3ccc(C4CC4(F)F)cc3)cc2)C1 (stereo partly shown) | nM | = | 11
CC(C)(C)c1nc(N2CCN(CC[C@H]3CC[C@@H](NC(=O)[C@H]4CC[C@H](O)CC4)CC3)CC2)cc(C(F)(F)F)n1 | nM | < | 50
CC(C)(C)c1nc(N2CCN(CCCCNC(=O)N3CCCN(c4ccccc4)CC3)CC2)cc(C(F)(F)F)n1 | nM | = | 44.2
CCCN1CC(c2ccc(NS(=O)(=O)c3ccc(C(C)C)cc3)cn2)C1 | nM | = | 49

====

Let's look at some Ki data for D(3) dopamine receptor (Homo sapiens) that I collected from the literature.

molecule | study.system | unit.name | value.prefix | Ki
CCCc1cc(N2CCN(CCCCn3ncc(=O)[nH]c3=O)CC2)nc(C(C)(C)C)n1 | D(3) dopamine receptor (Homo sapiens) | µM | < | 0.01
O=C(NCCCCN1CCN(c2cc(C(F)(F)F)nc3ccccc23)CC1)N1CCN(c2ccccc2)CC1 | D(3) dopamine receptor (Homo sapiens) | µM | = | 0.299
Cc1nc(N2CCNCC2)ccc1NS(=O)(=O)c1ccc([C@H](C)C(F)(F)F)cc1 | D(3) dopamine receptor (Homo sapiens) | µM | < | 0.01
CC(C)c1cc(N2CCN(CCC3CCC(NC(=O)[C@H]4C[C@H](O)C4)CC3)C[C@@H]2C)nc(C(C)(C)C)n1 (stereo partly shown) | D(3) dopamine receptor (Homo sapiens) | µM | < | 0.01
Cc1cc(C)cc(N2CCN(CCCCn3cc(C)c(=O)[nH]c3=O)CC2)c1 | D(3) dopamine receptor (Homo sapiens) | µM | = | 0.0055
COCCc1cc(N2CCN(CC[C@H]3CC[C@H](NC(=O)[C@H]4CC[C@@H](O)CC4)CC3)CC2)nc(C(C)(C)C)n1 | D(3) dopamine receptor (Homo sapiens) | µM | < | 0.01
CCCc1cc(N2CCN(CCCCn3ccc(-c4ccc(C)cc4)nc3=O)CC2)nc(C(C)(C)C)n1 | D(3) dopamine receptor (Homo sapiens) | µM | = | 0.0023
CO[C@H]1CC[C@H](CC(=O)N[C@H]2CC[C@H](CCN3CCN(c4noc5c(F)cc(F)cc45)CC3)CC2)CC1 | D(3) dopamine receptor (Homo sapiens) | µM | = | 0.0118
COc1ccccc1N1CCN(C(=O)NCCCCN2CCN(c3cc(C(F)(F)F)nc(C(C)(C)C)n3)CC2)CC1 | D(3) dopamine receptor (Homo sapiens) | µM | = | 0.0252
CC(C)(C)c1nc(N2CCN(CCCCn3cc(F)c(=O)[nH]c3=O)CC2)cc(C(F)(F)F)n1.Cl | D(3) dopamine receptor (Homo sapiens) | µM | = | 0.00299
CC(C)(C)c1nc(C2CCC2)cc(N2CCN(CCCCn3ncc(=O)[nH]c3=O)CC2)n1 | D(3) dopamine receptor (Homo sapiens) | µM | < | 0.01
Cc1nc(N2CCNCC2)ccc1NS(=O)(=O)c1ccc([C@H](C)C(F)F)cc1 | D(3) dopamine receptor (Homo sapiens) | µM | < | 0.01
CC(C)(C)c1nc(N2CCN(CCCCNC(=O)N3CCN(c4ccccc4C#N)CC3)CC2)cc(C(F)(F)F)n1 | D(3) dopamine receptor (Homo sapiens) | µM | = | 0.0166
CC(C)(C)c1cc(N2CCN(CC[C@H]3CC[C@H](NC(=O)[C@H]4CC[C@H](O)CC4)CC3)CC2)nc(C(C)(C)C)n1 | D(3) dopamine receptor (Homo sapiens) | µM | < | 0.01
CC(C)(C)c1nc(N2CCN(CCCN3C(=O)CCc4ccccc43)CC2)cc(C(F)(F)F)n1.Cl | D(3) dopamine receptor (Homo sapiens) | µM | = | 0.00343

====

pKi: −log10 of the molar value.
Let's look at some pKi data for D(3) dopamine receptor (Homo sapiens, UniProt P35462) that I collected from the literature.

compound | pKi
CCCN1CCC[C@@H]2Cc3cc(NS(=O)(=O)c4ccc(C(C)C)cc4)ccc3C[C@H]21 (relative stereo) | 8.64
Cc1ccc(N2CCN(C(=O)NCCCCN3CCN(c4cc(C(F)(F)F)nc(C(C)(C)C)n4)CC3)CC2)cc1 | 7.64
CCCc1cc(N2CCN(C(C)CCCn3cc(C)c(=O)[nH]c3=O)CC2)nc(C(C)(C)C)n1 (single isomer, unassigned; (+)) | 8.53
Cc1cn(CCCCN2CCN(c3ccccc3Cl)CC2)c(=O)[nH]c1=O | 8.82
CC(C)(C)c1nc(N2CCN(CCCCNC(=O)N3CCN(c4cc(C#N)cc(C(F)(F)F)c4)CC3)CC2)cc(C(F)(F)F)n1 | 7.32
CCCc1cc(N2CCN(CCCCN3C(=O)CCc4ccccc43)CC2)nc(C(C)(C)C)n1 | 8.80
CC(C)(C)c1nc(N2CCN(CCCCNC(=O)N3CCN(c4ccccc4)CC3)CC2)c2ccccc2n1 | 7.37

====

Let's look at some Ki data for UniProt:P35462 that I collected from the literature.

compound | study.system | Ki
COc1nc(N2CCNCC2)ccc1NS(=O)(=O)c1ccc(C(C)C(F)(F)F)cc1 (centres unmarked) | UniProt:P35462 | < 10 nM
COCCC(=O)N[C@H]1CC[C@H](CCN2CCN(c3noc4ccc(F)c(F)c34)CC2)CC1 | UniProt:P35462 | 9.71 nM
CCCNC1COc2cc(NS(=O)(=O)c3ccc(C(C)C)cc3)cnc2C1 (centres unmarked) | UniProt:P35462 | 30.4 nM
CCCN1CC[C@@H](c2ccc(NS(=O)(=O)c3ccc(-c4ccno4)s3)cc2)C1 | UniProt:P35462 | 37.6 nM
O=C(NCCCCN1CCN(c2cccc(C(F)(F)F)c2)CC1)N1CCN(c2ccccc2)CC1 | UniProt:P35462 | 14.2 nM
CC(C)(C)c1nc(N2CCN(CCCCNC(=O)N3CCN(c4cccc(C#N)c4)CC3)CC2)cc(C(F)(F)F)n1 | UniProt:P35462 | 8.7 nM
CCCN1CC[C@@H](c2ccc(NS(=O)(=O)c3ccc(N4CCC(F)(F)C4)cc3)cc2)C1 | UniProt:P35462 | 0.6 nM
CCCc1cc(N2CCN(CCCCn3cc(C#N)c(=O)[nH]c3=O)CC2)nc(C(C)(C)C)n1 | UniProt:P35462 | 4.87 nM

====

pKi: −log10 of the molar value.
Let's look at some pKi data for D(3) dopamine receptor (Homo sapiens) that I collected from the literature.

structure.as.smiles | study.system | pKi
CCCN1C[C@@H]2C[C@@H](c3ccc(NS(=O)(=O)c4ccc(N5CCC5)cc4)cc3)[C@@H]2C1 | D(3) dopamine receptor (Homo sapiens) | 8.66
CC(C)(C)c1nc(N2CCN(CCCCn3cc(C#N)c(=O)[nH]c3=O)CC2)cc(C(F)(F)F)n1 | D(3) dopamine receptor (Homo sapiens) | 8.32
COCCC(=O)N[C@H]1CC[C@H](CCN2CCN(c3ncc(C(F)(F)F)cc3Cl)CC2)CC1 | D(3) dopamine receptor (Homo sapiens) | 8.25

====

Let's look at some pKi data for D(3) dopamine receptor (Homo sapiens, UniProt P35462) that I collected from the literature.
pKi: −log10 of the molar value.

compound | value.prefix | pKi
CCCc1cc(N2CCN(CCCCn3ccc(C)cc3=O)CC2)nc(C(C)(C)C)n1.Cl | = | 9.08
O=C(NCCCCN1CCN(c2ccc3ccccc3n2)CC1)C1CCC(c2ccccc2)CC1 (centres unmarked) | = | 7.21
COc1nc(N2CCNCC2)ccc1NS(=O)(=O)c1ccc([C@H](C)C(F)(F)F)cc1 | > | 8.00
CCCc1cc(N2CCN(CCCCn3ccc(C(F)(F)F)nc3=O)CC2)nc(C(C)(C)C)n1 | = | 8.24
CCCN1CCC(c2ccc(NS(=O)(=O)c3ccc(C(C)C)cc3)cn2)C1 (single isomer, unassigned; (-)) | = | 8.24
CC(C)(C)c1nc(N2CCN(CCCCNC(=O)c3cn4ccccc4n3)CC2)cc(C(F)(F)F)n1 | = | 8.38
COc1cc2c(cc1OC)N(CCCCN1CCN(c3cc(C(F)(F)F)nc(C(C)(C)C)n3)CC1)C(=O)CCC2=O | = | 8.35
CCCc1cc(N2CCN(CCCCn3cc(C)c(O)nc3=O)CC2)nc(C(C)(C)C)n1 | = | 8.76
CC(C)(C)c1nc(N2CCN(CCCCNC(=O)N3CCN(CC4CC4)CC3)CC2)cc(C(F)(F)F)n1 | = | 7.86
O=S(=O)(Nc1ccc([C@@H]2CCN(CCCF)C2)cc1)c1ccc(OC(F)(F)F)cc1 | = | 8.38
CC(C)(C)c1nc(N2CCN(CCCCNC(=O)N3CCN(Cc4ccccc4)CC3)CC2)cc(C(F)(F)F)n1 | = | 7.78
Cn1c(OCCCN2CCN(c3cc(C4(C)CC4)nc(C(C)(C)C)n3)CC2)nnc1-c1ccccc1 | = | 8.59
CCCN[C@H]1CCc2cc(NS(=O)(=O)c3ccc(-c4ccon4)s3)ccc2C1 | = | 7.51
CC(C)c1ccc(S(=O)(=O)Nc2ccc(N3CCNCC3)nc2)cc1 | = | 7.94
C=CCN1CCN(c2ncc(NS(=O)(=O)c3ccc(C(C)C)cc3)cn2)CC1 | = | 8.42
N#Cc1cc(N2CCN(CCCCNC(=O)N3CCN(c4ccccc4)CC3)CC2)cc(C(F)(F)F)c1 | = | 8.39
CC(C)(C)c1nc(N2CCN(CCCCNC(=O)N3CCN(C(=O)c4ccccc4)CC3)CC2)cc(C(F)(F)F)n1 | = | 7.54
CC(C)(C)c1nc(N2CCN(CCCCNC(=O)N3Cc4ccccc4C3)CC2)cc(C(F)(F)F)n1 | = | 7.91
CCCN1CC[C@@H](c2ccc(NS(=O)(=O)c3ccc(-c4ccco4)cc3)cc2)C1 | = | 9.21
CC(=O)N[C@H]1CC[C@H](CCN2CCN(c3ccnc(Cl)c3Cl)CC2)CC1 | = | 8.77
CCCNCCOc1ccc(NS(=O)(=O)c2ccc(C(C)C)cc2)c(C)n1 | > | 9.00
CCCNCC1CCc2cc(NS(=O)(=O)c3ccc(C(C)C)cc3)ccc21 (centres unmarked) | = | 8.88
Cc1nc(N2CCNCC2)ccc1NS(=O)(=O)c1ccc([C@@H](C)C(F)(F)F)cc1 | > | 8.00
C=CCN1C[C@@H]2C[C@@H](c3ccc(NS(=O)(=O)c4ccc(OC(F)(F)F)cc4)cc3)[C@@H]2C1 | = | 8.38
COCCc1cc(N2CCN(CC[C@H]3CC[C@@H](NC(=O)[C@H]4C[C@@H](O)C4)CC3)CC2)nc(C(C)(C)C)n1 | > | 8.00
CCCN1CC[C@@H](c2ccccc2NS(=O)(=O)c2ccc(Br)c(F)c2)C1 | = | 7.90
CCCN[C@@H]1CCc2ccc(NS(=O)(=O)c3ccc(C(C)C)cc3)cc2C1 | = | 7.85
Cc1cccn(CCCCN2CCN(c3cc(C(F)(F)F)nc(C(C)(C)C)n3)CC2)c1=O | = | 8.64
CCCN1CC[C@@H](c2ccc(NS(=O)(=O)c3ccc(C(C)C(F)(F)F)cc3)cc2)C1 (some centres unmarked) | = | 8.85
CCCN1CC(c2ccc(NS(=O)(=O)c3ccc(Br)cc3)cc2)C1 | = | 7.40
